The following compounds are listed with their measured normalized GFP fluorescence values.
system: Staphylococcus aureus MW2 delta-mecA (mecA-); assay: normalized GFP fluorescence (growth of mecA- strain) (fraction of control range); higher = more growth of mecA- strain; conditions: compound concentration: 150 uM; cefoxitin: subinhibitory; fluorescent label: GFP
Keep the answer to the number alone.

{"compound": "CCOc1cc(CC(=O)N[C@@H](CC(C)C)c2ccccc2N2CCCCC2)ccc1C(=O)O", "targetDesc": "Staphylococcus aureus MW2 delta-mecA (mecA-)", "normalized GFP fluorescence": -0.00461}
{"compound": "CC1(C)S[C@@H]2[C@H](NC(=O)[C@H](C(=O)O)c3ccsc3)C(=O)N2[C@H]1C(=O)O", "targetDesc": "Staphylococcus aureus MW2 delta-mecA (mecA-)", "normalized GFP fluorescence": 0.468}

Now look at this entry.
So what's the measured normalized GFP fluorescence for this one? `O=C(c1cc(Cc2n[nH]c(=O)c3ccccc23)ccc1F)N1CCN(C(=O)C2CC2)CC1`
0.204

* * *

system: Staphylococcus aureus MW2 (mecA+); experiment: normalized DsRed fluorescence (growth of mecA+ strain) (fraction of control range); higher = more growth of mecA+ strain; details: compound concentration: 150 uM; cefoxitin: subinhibitory; fluorescent label: DsRed
quantityKind: normalized DsRed fluorescence
Keep the answer to the number alone.

So what's the measured normalized DsRed fluorescence for this one? `Cc1ccc(/C(=C\CN2CCCC2)c2ccccn2)cc1`
0.576

So what's the measured normalized DsRed fluorescence for this one? `Nc1nc(O)c2ncn(CCC(CO)CO)c2n1`
0.941

So what's the measured normalized DsRed fluorescence for this one? `NC(=O)c1cc[n+](CC2=C(C(=O)O)N3C(=O)[C@@H](NC(=O)[C@@H](c4ccccc4)S(=O)(=O)[O-])[C@H]3SC2)cc1`
1.03

So what's the measured normalized DsRed fluorescence for this one? `CC[C@]1(O)C[C@@H]2CN(CCc3c([nH]c4ccccc34)[C@@](C(=O)OC)(c3cc4c(cc3OC)N(C)[C@H]3[C@@](O)(C(=O)OC)[C@H](OC(C)=O)[C@]5(CC)C=CCN6CC[C@]43[C@@H]65)C2)C1`
0.851

So what's the measured normalized DsRed fluorescence for this one? CC(C(=O)O)c1cccc(Oc2ccccc2)c1 (configuration not stated)
0.467

So what's the measured normalized DsRed fluorescence for this one? `C[C@H](N)[C@H](O)c1cccc(O)c1`
0.581

So what's the measured normalized DsRed fluorescence for this one? CNC(C)C1CCC(N)C(OC2C(N)CC(N)C(OC3OCC(C)(O)C(NC)C3O)C2O)O1 (configuration not stated)
0.522

* * *

test system: Staphylococcus aureus MW2 delta-mecA (mecA-); assay: normalized GFP fluorescence (growth of mecA- strain) (fraction of control range); higher = more growth of mecA- strain; details: compound concentration: 150 uM; cefoxitin: subinhibitory; fluorescent label: GFP
Where a name gives a salt, the structure may show the parent alone.
The following compounds are listed with their measured normalized GFP fluorescence values.
Keep the answer to the number alone.

Please review the entries below; each comes with its answer.
{"compound": "NNC(=O)c1ccncc1", "targetDesc": "Staphylococcus aureus MW2 delta-mecA (mecA-)", "normalized GFP fluorescence": 0.19}
{"compound": "CCN(CC)C(=O)c1cccnc1", "targetDesc": "Staphylococcus aureus MW2 delta-mecA (mecA-)", "normalized GFP fluorescence": 0.263}
{"compound": "C[C@@H]1C/C=C/C=C/C=C/C=C/[C@H](O[C@@H]2O[C@H](C)[C@@H](O)[C@H](N)[C@@H]2O)C[C@@H]2O[C@](O)(C[C@@H](O)C[C@H]3O[C@@H]3/C=C/C(=O)O1)C[C@H](O)[C@H]2C(=O)O", "targetDesc": "Staphylococcus aureus MW2 delta-mecA (mecA-)", "normalized GFP fluorescence": 0.448}
{"compound": "CCOC(=O)[C@H](CCc1ccccc1)N[C@@H](C)C(=O)N1Cc2cc(OC)c(OC)cc2C[C@H]1C(=O)O [Moexipril HCl]", "targetDesc": "Staphylococcus aureus MW2 delta-mecA (mecA-)", "normalized GFP fluorescence": 0.373}
{"compound": "CCN(CCCc1ccccc1)CCCc1ccccc1", "targetDesc": "Staphylococcus aureus MW2 delta-mecA (mecA-)", "normalized GFP fluorescence": 0.1}
{"compound": "Cc1ccc([C@@H]2O[C@H](CO)[C@@H](O)[C@H](O)[C@H]2O)cc1Cc1ccc(-c2ccc(F)cc2)s1 [Canagliflozin]", "targetDesc": "Staphylococcus aureus MW2 delta-mecA (mecA-)", "normalized GFP fluorescence": -0.0143}

Now look at this entry.
So what's the measured normalized GFP fluorescence for this one? `CCCSc1ccc2[nH]c(NC(=O)OC)nc2c1`
0.251
